# Measurement notes: in vivo
# Type: in vivo
# Condition: mouse, in vivo, sc, male ddy mice, subcutaneous injection, Litchfield-Wilcoxon
Structures can show the parent of a compound that is named as a salt.
Reported endpoint: LD50 at 72 h (mg/kg)
Give bare numbers, in mg/kg.

Example entries and their recorded answers appear below.
Molecule: Cc1cccc(C(=Nc2ccccc2C)NC2CCCCC2)c1.Cl [Compound 26]
Units label: mg/kg
LD50 at 72 h: 740
//
Molecule: Cc1ccc(C(=Nc2cccc(C)c2)NC2CCCCC2)cc1.Cl [Compound 32]
Units label: mg/kg
LD50 at 72 h: 460

Please give LD50 at 72 h for each item listed below.
1. COc1ccc2c(c1)[C@]13CCCC[C@@H]1[C@H](C2)N(C)CC3 [Compound 15, dextrometrofan hydrobromide, reference compound]
2. COc1cccc(N=C(NC2CCCCC2)c2ccccc2)c1.Cl [Compound 6]
3. Cc1ccccc1N=C(NC1CCCCC1)c1ccccc1C.Cl [Compound 19]

1. 153
2. 78
3. 650

---

# System: dogs
# Measurement notes: Antitussive activity (50%-antitussive effective dose AtD50; efficiency ratio relative to codeine phosphate)
# Assay type: in vivo
# Condition: Canis lupus familiaris; intravenous injection; Litchfield-Wilcoxon method; read-out: AtD50 (50%-antitussive effective dose)
Structures can show the parent of a compound that is named as a salt.
Reported endpoint: ED50 (mg/kg)
Give bare numbers, in mg/kg.

Sample records with ED50:
Molecule: Cc1cc(C)c(NC(=NC2CCCCC2)c2ccccc2)c(C)c1 [Compound 46, hydrochloride]
Reported endpoint: ED50
Units label: mg/kg
Reported measurement: 5.15
--
Molecule: Cc1ccccc1C(=NC1CCCCC1)Nc1cccc(C)c1C [Compound 22, hydrochloride]
Reported endpoint: ED50
Units label: mg/kg
Reported measurement: 3.58

Please examine the following record next.
Which measured ED50 value corresponds to `CCc1ccccc1N=C(NC1CCCCC1)c1ccc(C)cc1.Cl` ?
4.29
